biological target: F508delCFTR (Homo sapiens, UniProt P13569, DEL508-508); construct: expressed in transfected cells; host or cells: CFBE41o- human lung-derived epithelial cells (CFBE41o-F508delCFTR-HRP), doxycycline-inducible; assay: Cell Surface Expression-Horse Radish Peroxidase (CSE-HRP) assay, test compound without co-corrector; format: cell-based; conditions: test compound without co-corrector
Sequence (P13569 with tags, fused parts or gaps DEL508-508): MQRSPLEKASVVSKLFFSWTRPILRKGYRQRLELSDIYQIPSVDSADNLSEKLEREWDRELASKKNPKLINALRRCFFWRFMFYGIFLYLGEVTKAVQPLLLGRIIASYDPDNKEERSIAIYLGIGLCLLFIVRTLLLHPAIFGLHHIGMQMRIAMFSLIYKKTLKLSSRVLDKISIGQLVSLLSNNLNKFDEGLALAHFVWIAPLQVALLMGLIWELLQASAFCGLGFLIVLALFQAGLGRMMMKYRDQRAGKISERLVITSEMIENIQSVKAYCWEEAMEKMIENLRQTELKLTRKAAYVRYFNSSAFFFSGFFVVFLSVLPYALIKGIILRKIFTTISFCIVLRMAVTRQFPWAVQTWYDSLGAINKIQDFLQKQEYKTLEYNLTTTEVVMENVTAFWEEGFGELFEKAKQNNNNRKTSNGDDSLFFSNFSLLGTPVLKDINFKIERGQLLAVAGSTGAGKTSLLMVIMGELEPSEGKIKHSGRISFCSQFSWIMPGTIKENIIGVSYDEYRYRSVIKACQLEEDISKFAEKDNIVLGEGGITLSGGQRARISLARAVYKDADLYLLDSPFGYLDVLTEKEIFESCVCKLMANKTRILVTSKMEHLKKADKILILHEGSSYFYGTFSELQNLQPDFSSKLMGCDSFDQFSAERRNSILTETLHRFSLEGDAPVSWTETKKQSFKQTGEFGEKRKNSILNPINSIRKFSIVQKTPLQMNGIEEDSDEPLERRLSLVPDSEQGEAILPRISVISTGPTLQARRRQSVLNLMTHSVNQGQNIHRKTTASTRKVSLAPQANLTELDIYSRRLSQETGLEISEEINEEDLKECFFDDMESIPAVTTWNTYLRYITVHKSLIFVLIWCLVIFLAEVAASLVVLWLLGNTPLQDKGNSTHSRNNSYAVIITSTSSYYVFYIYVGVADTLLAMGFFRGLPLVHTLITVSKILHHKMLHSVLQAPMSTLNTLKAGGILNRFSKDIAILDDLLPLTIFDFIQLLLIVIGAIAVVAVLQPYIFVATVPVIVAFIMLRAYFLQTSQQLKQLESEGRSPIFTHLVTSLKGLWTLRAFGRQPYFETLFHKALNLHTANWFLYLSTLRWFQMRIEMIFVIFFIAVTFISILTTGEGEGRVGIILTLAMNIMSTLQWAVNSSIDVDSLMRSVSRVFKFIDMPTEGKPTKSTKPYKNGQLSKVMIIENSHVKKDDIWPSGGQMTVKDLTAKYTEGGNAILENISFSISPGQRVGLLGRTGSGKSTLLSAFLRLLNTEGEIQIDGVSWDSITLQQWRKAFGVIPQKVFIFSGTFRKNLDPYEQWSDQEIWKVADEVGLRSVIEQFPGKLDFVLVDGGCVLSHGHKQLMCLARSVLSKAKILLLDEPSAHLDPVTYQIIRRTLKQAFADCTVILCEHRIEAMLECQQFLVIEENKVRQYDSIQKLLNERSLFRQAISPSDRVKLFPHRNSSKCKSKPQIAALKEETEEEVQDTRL
pEC50: −log10 of the molar value.
Listed here are compounds together with their documented pEC50.

COc1ccc(C2CCC2)c2c1C(C(=O)NS(=O)(=O)c1cccc3ncccc13)CC2 (stereo not drawn)
5.00 to 5.52
COc1ccc2c(c1)[C@@](C)(C(=O)NS(=O)(=O)c1cccc3ccccc13)CC2
5.00 to 5.52
Cc1ccccc1S(=O)(=O)NC(=O)C1CCCc2cccc(Cl)c21 (stereo not drawn)
5.00 to 5.52
COc1ccc(Br)c2c1C(C(=O)NS(=O)(=O)c1cccc3ccccc13)CCC2 (stereo not drawn)
> 5.52
COCCS(=O)(=O)NC(=O)C1CCc2c(Cl)cccc21 (stereo not drawn)
≤ 5.00
COc1ccc2c(c1OC)CCC2C(=O)NS(=O)(=O)c1ccccc1C (stereo not drawn)
≤ 5.00
O=C(NS(=O)(=O)c1cccc2ccccc12)C1CCCc2c(OC3CCCC3)ccc(Br)c21 (stereo not drawn)
5.00 to 5.52
COc1ccc(C2CCC2)c2c1C(C(=O)NS(=O)(=O)c1cccn3nccc13)CC2 (stereo not drawn)
5.00 to 5.52

Let's switch to this compound now.
// returns pEC50 for COc1ccc(Br)c2c1C(C(=O)NS(=O)(=O)c1cccc3cnn(C)c13)CC2 (stereo not drawn) with F508delCFTR (Homo sapiens, UniProt P13569, DEL508-508); value = > 5.52

FYI, the data here is from patent US20180244611A1.
